Hey, just so you know, these numbers are from the Immune Epitope Database (IEDB).

biological target: HLA-A*01:01; test: IEDB peptide-MHC binding, purified MHC/competitive/radioactivity; filed as Kd, often an IC50 or EC50 that approximates it; bounds were set here for any values at or beyond the usual limits of such assays; conditions: source organism: Dengue virus 1 Brazil/97-11/1997
pKd: −log10 of the molar value.
Assay endpoint: pKd

>  <Seq string>
VTDKEKPVNI

>  <Recorded measurement>
4.81

$$$$
>  <Seq string>
KTKNNDWDY

>  <Recorded measurement>
6.23

$$$$

###

target: HLA-A*68:01; experiment: IEDB peptide-MHC binding, purified MHC/competitive/radioactivity; filed as Kd, often an IC50 or EC50 that approximates it; bounds were set here for any values at or beyond the usual limits of such assays; conditions: source organism: SARS coronavirus Tor2
Let's look at some sequences and their measured Kd.
Assay endpoint: Kd (nM)

>  <Seq string>
KVKYLYFIK

>  <Unit info>
nM

>  <Censoring sign>
=

>  <Recorded measurement>
968

$$$$
>  <Seq string>
QQQGQTVTK

>  <Unit info>
nM

>  <Censoring sign>
≥

>  <Recorded measurement>
50500

$$$$
>  <Seq string>
RLYECLYRNR

>  <Unit info>
nM

>  <Censoring sign>
=

>  <Recorded measurement>
229

$$$$
>  <Seq string>
ASLPYGANK

>  <Unit info>
nM

>  <Censoring sign>
=

>  <Recorded measurement>
16500

$$$$
>  <Seq string>
ASLPTTIAK

>  <Unit info>
nM

>  <Censoring sign>
=

>  <Recorded measurement>
2030

$$$$
>  <Seq string>
TMHANYIFWR

>  <Unit info>
nM

>  <Censoring sign>
=

>  <Recorded measurement>
35.5

$$$$
>  <Seq string>
TQNVLYENQK

>  <Unit info>
nM

>  <Censoring sign>
=

>  <Recorded measurement>
3090

$$$$
>  <Seq string>
WIMLLQFAY

>  <Unit info>
nM

>  <Censoring sign>
≥

>  <Recorded measurement>
23000

$$$$
>  <Seq string>
NVYADSFVVK

>  <Unit info>
nM

>  <Censoring sign>
=

>  <Recorded measurement>
29.3

$$$$
>  <Seq string>
ALAYYNNSK

>  <Unit info>
nM

>  <Censoring sign>
=

>  <Recorded measurement>
832

$$$$
>  <Seq string>
KMQRMLLEK

>  <Unit info>
nM

>  <Censoring sign>
=

>  <Recorded measurement>
1380

$$$$
>  <Seq string>
YFVCWHTHNY

>  <Unit info>
nM

>  <Censoring sign>
=

>  <Recorded measurement>
4860

$$$$
>  <Seq string>
AIVCRFDTR

>  <Unit info>
nM

>  <Censoring sign>
=

>  <Recorded measurement>
563

$$$$
>  <Seq string>
IVNAANIHLK

>  <Unit info>
nM

>  <Censoring sign>
=

>  <Recorded measurement>
66.5

$$$$
>  <Seq string>
MLLQFAYSNR

>  <Unit info>
nM

>  <Censoring sign>
=

>  <Recorded measurement>
50.8

$$$$
>  <Seq string>
VLAYMLFTK

>  <Unit info>
nM

>  <Censoring sign>
=

>  <Recorded measurement>
7.96

$$$$
>  <Seq string>
IVFVCVEYY

>  <Unit info>
nM

>  <Censoring sign>
=

>  <Recorded measurement>
23

$$$$
>  <Seq string>
SMMGFKMNY

>  <Unit info>
nM

>  <Censoring sign>
=

>  <Recorded measurement>
10600

$$$$
>  <Seq string>
ALSTNHGHK

>  <Unit info>
nM

>  <Censoring sign>
=

>  <Recorded measurement>
3050

$$$$
>  <Seq string>
GMSYYCKSHK

>  <Unit info>
nM

>  <Censoring sign>
=

>  <Recorded measurement>
1370

$$$$
>  <Seq string>
TVYVYSRVK

>  <Unit info>
nM

>  <Censoring sign>
=

>  <Recorded measurement>
919

$$$$
>  <Seq string>
KTNCCRFQEK

>  <Unit info>
nM

>  <Censoring sign>
=

>  <Recorded measurement>
4220

$$$$
